# test_method_notes: chemical genetic growth profiling, strain panel (AID 1159580);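 note: tested at 20 µM; growth read once vehicle control cultures reached saturation at 30 °C; 1 = growth at the plate median or of vehicle wells; lower values mean less growth of the strain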
# assay_conditions: S. cerevisiae deletion strains, growth OD, locus YLL001W, strain dnm1, active compounds read low
Among all 5,500 compounds or so, about 2,000 (36%) were called active. Not shown: some 18% with an inconclusive outcome. Some of the results follow.
reported_metric: normalized growth
Number, no unit, nothing else.

Consider the reported normalized growth for these compounds:
CC1=C(/C=C/C(C)=C/C=C/C(C)=C/C=C/C=C(C)/C=C/C=C(C)/C=C/C2=C(C)CCCC2(C)C)C(C)(C)CCC1 = 0.926
CCOc1ccc2c(c1)C(C)=CC(C)(C)N2 = 1
O=C(O)c1cc(=O)c(O)c2c(O)c(O)ccc2c1 = 1
C=CCc1cc(OC)c2c(c1OC)OCO2 = 0.96

Summary for this compound, "CN(Cc1cc(Br)cc(Br)c1N)C1CCCCC1" : normalized growth is 1.03

Looking up "CCCc1cc(OC)c2c(c1)OCO2" , I found its normalized growth recorded as 0.999

Entry under test: "CC1=C(/C=C/C(C)=C/C=C/C(C)=C/CO)C(C)(C)CCC1" . Its normalized growth was 0.975

Lab note: CC[C@@]1(C2O[C@@H](C3O[C@@](O)(CC)[C@H](C)C[C@@H]3C)C[C@@H]2C)CC[C@H]([C@]2(C)CCC3(C[C@H](O)[C@@H](C)[C@@H]([C@H](C)[C@@H](OC)[C@H](C)C(=O)O)O3)O2)O1 (stereo not given in full) gave normalized growth of 1.02

// recorded normalized growth for "NCc1ccc(S(N)(=O)=O)cc1" : 1.05

The reported value for "O=C(O)c1cc(=O)c(O)c2c(O)c(O)c(O)cc2c1" in terms of normalized growth is 0.548

* * *

# test_method_notes: chemical genetic growth profiling, strain panel (AID 1159580);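 note: tested at 20 µM; growth read once vehicle control cultures reached saturation at 30 °C; 1 = growth at the plate median or of vehicle wells; lower values mean less growth of the strain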
# assay_conditions: S. cerevisiae deletion strains, growth OD, locus YMR205C, strain PFK2
About 2,000 (36%) of roughly 5,500 compounds were called active. About 18% were inconclusive and are not listed. No stated cut-off is given here; in the data, active means normalized growth mostly below about 0.91 (no sharp cut-off); inconclusive means no clear call, values can overlap the other calls; inactive means mostly above about 0.92. The list shows a part of the results.
Give one outcome, nothing more. List: 1.0 (active), 0.0 (inactive)

O=C1O[C@@H](CO)[C@H](O)[C@@H](O)[C@@H]1O = 0.0
Nc1nccs1 = 0.0
C#C[C@]1(O)CCC2C3CCc4cc(O)ccc4C3CC[C@@]21C (stereo partly specified) = 0.0

Exam item: Per the records of this test, what outcome belongs to "C[C@@H]1C[C@@H]([C@H](O)CC2CC(=O)NC(=O)C2)C(=O)[C@@H](C)C1" ?
Marked response: 1.0

Exam item: Outcome logged for C#C[C@]1(O)CCC2C3CCc4cc(OC)ccc4C3CC[C@@]21C (stereo partly specified) in this assay:
Marked response: 0.0

Exam item: Write down the call the test reported for this molecule. Item: C[C@]12CCC3c4ccc(OS(=O)(=O)O)cc4CCC3C1CCC2=O (stereo partly specified)
Marked response: 0.0

* * *

Let's look at some compounds and their measured normalized growth.
# test_method_notes: chemical genetic growth profiling, strain panel (AID 1159580);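 note: tested at 20 µM; growth read once vehicle control cultures reached saturation at 30 °C; 1 = growth at the plate median or of vehicle wells; lower values mean less growth of the strain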
# assay_conditions: S. cerevisiae deletion strains, growth OD, locus YGL078C, strain dbp3, active compounds read low
The campaign covered roughly 5,500 compounds. About 2,000 (36%) were called active. Not shown: some 18% with an inconclusive outcome. Some of the results follow.
The answer should be written as a number, with no unit following it.

COc1ccc(/C=C/C(=O)O)cc1OC = 1
CO[C@@H]1[C@@H](O[C@@H]2O[C@H](C)[C@@H](O[C@H]3C[C@@](C)(O)[C@H](O)[C@H](C)O3)[C@H](N(C)C)[C@H]2O)[C@@H](CC=O)C[C@@H](C)[C@@H](O[C@H]2CC[C@H](N(C)C)[C@@H](C)O2)/C=C/C=C/C[C@H](C)OC(=O)C[C@H]1O = 0.982
Nc1nccs1 = 1.01
COc1cc(/C=C/C(=O)O)cc(OC)c1OC = 1.02
CCn1cc(C(=O)O)c(=O)c2cc3c(cc21)OCO3 = 0.99
c1cc2c(cc1[C@H]1OC[C@H]3[C@@H]1CO[C@H]3c1ccc3c(c1)OCO3)OCO2 = 0.958
CCOP(=S)(OCC)SCCSCC = 0.996
COc1ccc(-c2cc(C(F)F)nn2-c2ccc(S(N)(=O)=O)cc2)cc1F = 0.996

Sure, the documented normalized growth for CCC(CCC(C)C1CCC2C3CC=C4C[C@@H](OC(C)=O)CC[C@]4(C)C3CC[C@]12C)C(C)C (some centres not stated) is 0.964

normalized growth in this record for C[C@@H]1CC2C3CCC4=CC(=O)C=C[C@]4(C)[C@@]3(F)[C@@H](O)C[C@]2(C)[C@@]1(O)C(=O)COP(=O)(O)O (some centres not stated) : 1.01

get_value(item= CC12CCC3C(CC=C4CC(O)CCC43C)C1CCC2=O (configuration not stated) , readout=normalized growth) returns 0.979

The recorded normalized growth for CC(=O)O[C@H]1CC[C@@]2(C)C(=CCC3C2CC[C@@]2(C)C3CC[C@@H]2C(C)CCCC(C)C)C1 (some centres not stated) is 1.02

Value of normalized growth reported for the compound "CCn1cc(C(=O)O)c(=O)c2ccc(C)nc21" is 0.947

Looking up "NCc1ccc(S(N)(=O)=O)cc1" , I found its normalized growth recorded as 0.98

Data point: "COc1cc(O)cc(/C=C/c2ccccc2)c1" ; normalized growth = 0.765

For record O=C(O)CCCCC1SCC2NC(=O)NC21 (configuration not stated) the listed normalized growth is 0.99
